- assay explanation: Pharmacokinetics after oral administration of a 60 μmol/kg dose in the rat
- Assay type: in vivo
- run parameters: rat, plasma, po, 60 umol/kg, analyte = administered product; oral 60 μmol/kg; mean
measured endpoint: Tmax

Q: State its Tmax: Clc1ccc2c(c1)C(N1CCNCC1)Cn1cccc1S2 (racemic)
A: ≤ 2 h

---

- assay explanation: Pharmacokinetics after oral administration of a 60 μmol/kg dose in the rat
- Format: in vivo
- run parameters: 60 umol/kg; analyte = administered product; oral 60 μmol/kg, rat, plasma; mean
measured endpoint: half-life
Please answer using the number first and the unit second.

Q: State its half-life: Clc1ccc2c(c1)C(N1CCNCC1)Cn1cccc1S2 (racemic) [ST2087]
A: 4.4 h
